# Study System: recombinant human integrin αVβ6 (Homo sapiens, UniProt P06756+P18564)
# Sequence (P06756 31-992 limits assumed): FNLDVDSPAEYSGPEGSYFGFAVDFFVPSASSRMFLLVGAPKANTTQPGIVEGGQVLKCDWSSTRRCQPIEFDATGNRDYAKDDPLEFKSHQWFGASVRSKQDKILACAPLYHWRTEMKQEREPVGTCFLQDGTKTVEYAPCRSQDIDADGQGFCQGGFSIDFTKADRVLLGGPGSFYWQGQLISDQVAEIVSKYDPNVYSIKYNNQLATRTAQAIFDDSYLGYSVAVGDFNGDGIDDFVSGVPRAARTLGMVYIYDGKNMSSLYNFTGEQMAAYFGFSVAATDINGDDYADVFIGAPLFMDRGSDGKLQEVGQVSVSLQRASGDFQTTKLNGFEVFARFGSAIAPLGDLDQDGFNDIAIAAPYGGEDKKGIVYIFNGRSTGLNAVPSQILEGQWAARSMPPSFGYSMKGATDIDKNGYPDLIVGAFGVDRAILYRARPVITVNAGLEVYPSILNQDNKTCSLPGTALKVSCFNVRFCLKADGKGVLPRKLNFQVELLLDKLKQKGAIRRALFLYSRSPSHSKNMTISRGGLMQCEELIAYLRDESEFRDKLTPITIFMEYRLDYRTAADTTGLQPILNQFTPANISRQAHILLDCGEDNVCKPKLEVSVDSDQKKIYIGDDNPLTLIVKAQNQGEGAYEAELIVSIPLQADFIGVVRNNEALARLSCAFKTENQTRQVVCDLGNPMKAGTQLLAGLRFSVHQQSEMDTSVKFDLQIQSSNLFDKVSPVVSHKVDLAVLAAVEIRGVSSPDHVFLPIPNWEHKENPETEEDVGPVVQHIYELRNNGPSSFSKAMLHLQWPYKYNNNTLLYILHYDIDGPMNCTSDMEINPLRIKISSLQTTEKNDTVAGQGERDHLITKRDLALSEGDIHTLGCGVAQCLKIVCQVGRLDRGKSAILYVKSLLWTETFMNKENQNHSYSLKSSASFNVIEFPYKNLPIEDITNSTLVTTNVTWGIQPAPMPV
# Sequence (P18564 22-707 limits assumed): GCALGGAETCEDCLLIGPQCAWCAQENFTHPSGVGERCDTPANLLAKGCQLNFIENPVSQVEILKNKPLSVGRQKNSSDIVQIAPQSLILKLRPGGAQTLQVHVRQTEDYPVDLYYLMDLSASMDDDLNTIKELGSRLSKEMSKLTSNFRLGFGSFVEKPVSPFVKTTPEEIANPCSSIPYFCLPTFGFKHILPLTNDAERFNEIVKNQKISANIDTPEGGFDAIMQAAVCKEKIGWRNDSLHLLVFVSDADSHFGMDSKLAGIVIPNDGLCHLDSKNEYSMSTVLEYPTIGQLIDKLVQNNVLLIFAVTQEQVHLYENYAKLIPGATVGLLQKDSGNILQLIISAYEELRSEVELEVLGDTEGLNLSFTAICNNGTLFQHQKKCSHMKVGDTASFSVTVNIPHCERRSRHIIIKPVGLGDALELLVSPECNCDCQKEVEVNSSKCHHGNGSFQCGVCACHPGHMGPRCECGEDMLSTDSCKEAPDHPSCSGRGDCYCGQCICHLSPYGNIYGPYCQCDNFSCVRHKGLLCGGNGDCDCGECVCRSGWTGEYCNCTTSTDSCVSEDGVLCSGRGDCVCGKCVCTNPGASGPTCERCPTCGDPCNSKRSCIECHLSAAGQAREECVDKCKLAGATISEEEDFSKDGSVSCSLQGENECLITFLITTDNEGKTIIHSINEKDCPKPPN
# Assay Explanation: Solid phase integrin αVβ6 binding assay (Examples B1, B2)
# Condition Details: TGFβ1 LAP binding, values given in four ranges, read-out: αvβ6 Inhibition IC50 (nM) - range
Metric: IC50

[[record]]
record_smiles = "CO[C@H](C)CN(CCCCc1ccc2c(n1)NCCC2)CC[C@H](Nc1ncc(Br)cn1)C(=O)O"
metric = "IC50"
result = "< 50 nM"

[[record]]
record_smiles = "O=C(O)[C@H](CCN(CCCCc1ccc2c(n1)NCCC2)CC(F)F)Nc1ccncn1"
metric = "IC50"
result = "> 1000 nM"

[[record]]
record_smiles = "O=C(O)[C@H](CCN(CCCCc1ccc2c(n1)NCCC2)CCOc1ccccc1)Nc1ccnc(C(F)(F)F)n1"
metric = "IC50"
result = "< 50 nM"


Given the entry Cc1ncccc1OCCN(CCCCc1ccc2c(n1)NCCC2)CC[C@H](Nc1ncnc2cccnc12)C(=O)O , report its measured IC50. < 50 nM

---

# Study System: recombinant human integrin αVβ6 (Homo sapiens, UniProt P06756+P18564)
# Assay Explanation: Solid phase integrin αVβ6 binding assay (Examples B1, B2)
# Condition Details: TGFβ1 LAP binding, values given in four ranges, read-out: αvβ6 Inhibition IC50 (nM) - range
# Procedure: Microplates were coated with recombinant human integrin αVβ6 (2 μg/mL) in PBS (100 μL/well 25° C., overnight). The coating solution was removed, washed with wash buffer (0.05% Tween 20: 0.5 mM MnCl2; in 1×TBS). The plate was blocked with 200 μL/well of Block Buffer (1% BSA; 5% sucrose; 0.5 mM MnCl2; in 1×TBS) at 37° C. for 2 h. […] Bound antibody was detected by peroxidase-conjugated streptavidin. The IC50 values for testing compounds were calculated by a four-parameter logistic regression. […]
Metric: IC50

Solved entries:
[[record]]
record_smiles = "COCCN(CCCCc1ccc2c(n1)NCCC2)CC[C@H](Nc1cc(C(F)F)ncn1)C(=O)O"
result = "< 50 nM"

[[record]]
record_smiles = "O=C(O)[C@H](CCN(CCCCc1ccc2c(n1)NCCC2)CCOC(F)F)Nc1ncnc2ccccc12"
result = "< 50 nM"


# returns recorded IC50 (system: recombinant human integrin αVβ6 (Homo sapiens, UniProt P06756+P18564)) for O=C(O)[C@H](CCN(CCCCc1ccc2c(n1)NCCC2)CCOc1ccccc1)Nc1ncc(Br)cn1 < 50 nM
